Assay: self-splicing fitness, log relative to wild type (ln ratio); higher = more splicing; Tetrahymena group I intron in knt gene, E. coli kanamycin selection, DiMSum; sequences stand for … in CUCUCU…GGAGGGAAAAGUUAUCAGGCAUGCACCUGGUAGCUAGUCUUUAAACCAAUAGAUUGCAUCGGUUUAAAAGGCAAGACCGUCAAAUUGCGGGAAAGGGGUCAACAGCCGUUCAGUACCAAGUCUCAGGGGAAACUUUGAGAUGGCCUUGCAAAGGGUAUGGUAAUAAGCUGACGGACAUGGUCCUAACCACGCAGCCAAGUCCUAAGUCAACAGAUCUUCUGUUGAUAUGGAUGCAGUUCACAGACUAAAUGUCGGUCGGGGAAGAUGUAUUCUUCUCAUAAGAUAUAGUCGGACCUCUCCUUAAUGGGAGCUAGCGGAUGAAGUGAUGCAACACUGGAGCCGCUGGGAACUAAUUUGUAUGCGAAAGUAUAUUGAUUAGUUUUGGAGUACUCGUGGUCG;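 also: selection with 25 µg/mL kanamycin versus none on LB agar overnight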
Conditions: 37 °C
The threshold is inclusive: self-splicing fitness (ln) of exactly -1 counts as true (1); values below receive false (0).

# SEQUENCE_INPUT, ASSIGNED_LABEL
records = [
    ("GAAGAGCAAUAUUACGCGUA", "false (0)"),
    ("UUUAAGCAAUAUUACGACGA", "true (1)"),
    ("GAUUAGCAAUAUUACGGUGA", "false (0)"),
    ("CGCCAGCAAUAUUACGAUCG", "true (1)"),
    ("CACUAGCAAUAUUACGCUUU", "false (0)"),
    ("CCCAAGCAAUAUUACGGUUC", "false (0)"),
    ("GGACAGCAAUAUUACGCCGG", "false (0)"),
    ("AAUUAGCAAUAUUACGCUCA", "true (1)"),
    ("UUGUAGCAAUAUUACGCCAG", "true (1)"),
    ("CCUUAGCAAUAUUACGGAUA", "false (0)"),
    ("CGGCAGCAAUAUUACGAGCU", "false (0)"),
    ("ACACAGCAAUAUUACGUUGG", "false (0)"),
    ("UUGCAGCAAUAUUACGCAUA", "true (1)"),
    ("CAAAAGCAAUAUUACGAUAG", "true (1)"),
    ("UAGGAGCAAUAUUACGAGCG", "false (0)"),
    ("GAACAGCAAUAUUACGCUCU", "true (1)"),
    ("ACAAAGCAAUAUUACGAUGG", "true (1)"),
    ("CCGUAGCAAUAUUACGUGUC", "false (0)"),
    ("GCAUAGCAAUAUUACGCCUU", "false (0)"),
    ("CGACAGCAAUAUUACGCCUG", "true (1)"),
    ("UGUUAGCAAUAUUACGUCAA", "false (0)"),
    ("GGACAGCAAUAUUACGCCGC", "false (0)"),
    ("GAAGAGCAAUAUUACGCGGA", "false (0)"),
    ("CGUUAGCAAUAUUACGGAAA", "false (0)"),
    ("AGGCAGCAAUAUUACGCGCA", "true (1)"),
]

* * *

Test: self-splicing fitness, log relative to wild type (ln ratio); higher = more splicing; Tetrahymena group I intron in knt gene, E. coli kanamycin selection, DiMSum; sequences stand for … in CUCUCU…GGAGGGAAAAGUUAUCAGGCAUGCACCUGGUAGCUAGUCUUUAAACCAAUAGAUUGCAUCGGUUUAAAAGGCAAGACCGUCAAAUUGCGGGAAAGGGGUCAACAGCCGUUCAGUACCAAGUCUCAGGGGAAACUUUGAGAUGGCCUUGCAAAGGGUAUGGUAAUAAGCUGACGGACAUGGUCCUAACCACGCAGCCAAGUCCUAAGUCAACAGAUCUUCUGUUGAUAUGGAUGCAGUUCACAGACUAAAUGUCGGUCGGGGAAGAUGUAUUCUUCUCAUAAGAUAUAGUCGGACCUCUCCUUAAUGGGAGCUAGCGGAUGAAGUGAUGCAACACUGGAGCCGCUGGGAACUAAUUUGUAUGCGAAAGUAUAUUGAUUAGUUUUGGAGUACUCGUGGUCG
Settings: 37 °C
Consider the following sequences and their measured self-splicing fitness (ln) readings.
ENDPOINT_LABEL: self-splicing fitness (ln)

# SEQUENCE_INPUT, VALUE_MEASURED
records = [
    ("CGACAGCAAUAUUACGGGAG", -1.97),
    ("UUUAAGCAAUAUUACGGGAA", -0.806),
    ("ACCAAGCAAUAUUACGGUUA", -1.68),
    ("UAGAAGCAAUAUUACGUCGG", -0.306),
    ("CUUUAGCAAUAUUACGCGGG", -2.31),
    ("CGGCAGCAAUAUUACGUGAC", -1.22),
    ("UUCAAGCAAUAUUACGCGCU", -1.44),
    ("AAAAAGCAAUAUUACGUCUG", -0.319),
    ("CAUCAGCAAUAUUACGAUUC", -0.269),
    ("UCUAAGCAAUAUUACGACUU", -3.44),
    ("UGUGAGCAAUAUUACGAUGU", -2.08),
    ("GAUGAGCAAUAUUACGCUCG", -2.75),
    ("GAUGAGCAAUAUUACGUAGG", -1.79),
    ("AAAAAGCAAUAUUACGGCUC", 0.157),
    ("GGCCAGCAAUAUUACGUUAG", -2.82),
    ("CUAUAGCAAUAUUACGAACA", -2.49),
    ("UCAAAGCAAUAUUACGUGAC", -2.15),
    ("GGAUAGCAAUAUUACGCAAG", -0.103),
    ("AUGCAGCAAUAUUACGCCUA", -0.513),
    ("CGGCAGCAAUAUUACGGGCC", -1.98),
    ("GUUGAGCAAUAUUACGGGGU", -2.42),
    ("UGUGAGCAAUAUUACGGUAG", -1.79),
    ("UACGAGCAAUAUUACGGAAA", -1.29),
    ("UGGCAGCAAUAUUACGUUUG", -0.496),
    ("UGAGAGCAAUAUUACGUAGU", -2.41),
    ("UUAGAGCAAUAUUACGCGCU", -1.11),
    ("CAAAAGCAAUAUUACGUUCU", -0.926),
    ("GCUCAGCAAUAUUACGACUA", -0.247),
]

// provenance: the supplement of paper PMC7877785
